Data provenance: patent US20250026813A1

STUDY SYSTEM: SARS-CoV-2 spike protein receptor binding domain (isolated RBD) (SARS-CoV-2, UniProt P0DTC2 319-541)
In this section we review reported log10 koff values for a set of binders.
Give log10 of koff, with koff taken in s⁻¹.

Here are 4 binders together with their reported answers.
BINDER: IMPI-021 (antibody, V domains shown) VH: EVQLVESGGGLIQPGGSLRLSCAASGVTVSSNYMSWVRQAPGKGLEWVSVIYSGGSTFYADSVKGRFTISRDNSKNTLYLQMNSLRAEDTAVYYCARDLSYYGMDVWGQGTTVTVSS VL: DIQLTQSPSFLSASVGDRVTITCWASQGISSYLAWYQQKPGKAPKLLIYAASTLQSGVPSKFSGSGSGTEFTLTISSLQPEDFATYYCQQLNSYPCSFGQGTKLEIK
MEASURED NUMBER: -2.35
//
BINDER: IMPI-029 (antibody, V domains shown) VH: EVQLVESGGGLIQPGGSLRLSCAASGVTVSSNYMNWVRQAPGKGLEWVSVIYSGGSTYYADSVKGRFTISRDNSKNTLFLQMNSLRAEDSAVYYCARDLGPYGVDVWGQGTTVTVSS VL: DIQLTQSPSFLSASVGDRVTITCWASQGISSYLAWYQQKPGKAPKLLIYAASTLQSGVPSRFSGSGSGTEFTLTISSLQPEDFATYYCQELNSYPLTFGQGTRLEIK
MEASURED NUMBER: -3.80
//
BINDER: IMPI-005 (antibody, V domains shown) VH: EVQLVESGGGLIQPGGSLRLSCAASGFTVSSNYMNWVRQAPGKGLEWVSVIYSGGSTYYADSVKGRFTISRDNSKNTLFLQMNSLRAEDSAVYYCARDLGPYGVDVWGQGTTVTVSS VL: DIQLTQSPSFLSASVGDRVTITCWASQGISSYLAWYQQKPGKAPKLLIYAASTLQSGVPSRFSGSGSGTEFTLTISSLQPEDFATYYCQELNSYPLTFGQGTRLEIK
MEASURED NUMBER: -2.15
//
BINDER: IMPI-033 (antibody, V domains shown) VH: QVQLQESGPGLVKPSQTLSLTCTVSGGSISSYGYYWSWIRQHPGKGLEWIGYIYYSGSTYYNPSLKSRVTMSVDTSKNQLSLRLNSVSAADTAVYYCARDFGGNSNYFDYWGQGTLVTVSS VL: AIQLTQSPSSLSASVGDRVTITCRASQGISSALAWYQQKPGKAPNLLIYDASSLESGVPSRFSGSGSGTDFTLTISSLQPEDFATYYCQQFNSSPLTFGGGTKVEIK
MEASURED NUMBER: -2.13

Now for a further binder.
Short answer for IMPI-059 (antibody, V domains shown) VH: EVQLVESGGGLIQPGGSLRLSCAASGFTVSSIYMSWVRQAPGKGLEWVSIIYSRGSTDYADSVKGRFTISRDISKNTLYLQMNSLRAEDTAVYYCARDGTMVRGVHAFDIWGQGTMVTVSS VL: DIQMTQSPPSLSASIGDRVTITCQASQDISNYLNWYQQKPGKAPKLLIYDASNLETGVPSRFSGSGSGTDFTLTISNLQPEDIVTYYCQQYDNLPSSFGQGTKLEIK : log10 koff was -2.37
